molecular target: RSV fusion glycoprotein (RSV F) on RSV-A2 virus (respiratory syncytial virus, UniProt P03420 26-574); assay: cell-based or functional assay
MEASURED_ATTRIBUTE: Neutralization IC50 (RSV subtype A)

binder="ADI-41364 (antibody, V domains shown) VH: EVQLLESGAEVKKPGASVKVSCKASGYTFTDHSIHWVRQAPGRGLEWMGWFNPHTGVTDYAQKFQGWVTMTSDTSISTAYMELSSLKSDDTAIYFCARDQWETDGAYFLDYWGQGTLVTVSS VL: QSALTQPASVSGSPGQSITISCTGTSSDVGNFKLVSWYQQHPGKAPKLMIYEGNKRPSGVSNRFSGSKSGNTASLTISGLQAEDEADYYCCSSAVSSTFFGTGTKLTVL" obs_value="0.14 µg/mL"
binder="ADI-41355 (antibody, V domains shown, IgG1) VH: EVQLVESGGGLVKPGGSLRLSCTASGFTFSDYYMNWIRQAPGKGLEWVSYISGDGNTIYYTDSVKGRFTISRDNAKNSLFLQMNSLRGEDSAVYYCAGPVRGYTYGIFDYWGQGALVTVSS VL: YYVLTQPPSVSVAPGQAARITCGGNNIGSRSVNWYQQKPGQAPVVVIYGDSVRPSGIPERFSGSNSGNTATLTFSRVEAGDEADYYCQVWETNSDHPVVFGGGTKVTVL" obs_value="> 25 µg/mL"
binder="ADI-41399 (antibody, V domains shown) VH: QVQLVQSGAEVKKPGASVKVSCKASGYTFTTFAIHWVRQAPGQRLEWMGWINAGNGNTKYSQKFQGRVTITRDTSASTAYMELSSLRSEDTAVYYCARPEISSSSLNEKDDYWGQGTLVTVSS VL: QPVLTQPASVSGSPGQSITISCTGTSSDVGAYDFVSWYQQHPGKAPKFMIYEVSHRPSGVSNRFSGSKSGNTASLTISGLQAEDEADYYCSSYTTSNTLVFGGGTKLTVL" obs_value="> 25 µg/mL"
binder="ADI-41445 (antibody, V domains shown, IgG1) VH: QVQLVQSGAEVKRPGSSVKVSCKAFGGSFSNYAINWVRQAPGQGLEWMGGISPVLGTAIYAKRFQGKVTITADKFANTAYMDLSSLRFEDTAVYYCARSPPHVEFPLTKWFDPWGQGTLVTVSS VL: EIVMTQSPGTLSLSPGERATLSCRASQSVNSGYLAWYQHKPGRAPRLLIYGASNRATGVPDRFSGSGSGTDFTLTISRLEPEDFAVYYCQQYDNSLFTFGPGTKVDIK" obs_value="> 25 µg/mL"
binder="ADI-41378 (antibody, V domains shown, IgG1) VH: EVQLVESGPGLVKPSGTLSLTCAVSGDSISSSNWWSWVRQPPGKGLEWIGEVSHSGNTDYNPSLKSRVTISVDKSKNQFSLKLSSVTAADTAVYYCARPSPCSGGSCYWFFDLWGRGTLVTVSS VL: DIRLTQSPSSLSASVGDRVTITCRASQTINAYLNWYQQRPGKAPNLLIYAASSLQSGVPSRFSGSGSGTDFTLTISSLQPEDFATYYCQQSYKTAYTFGQGTKVEIK" obs_value="> 25 µg/mL"
